target: human carbonic anhydrase isozyme II (hCAII) (Homo sapiens); construct: gene CA2; test: in vitro esterase assay (4-NPA hydrolysis, […] nm); also yeast-based hCAII assay; assay type: biochemical
MEASUREMENT_LABEL: IC50 (µM)
Numbers only, in µM.

>>> result("COc1cc(-c2oc3c(OC)c(OC)cc(OC)c3c(=O)c2OC)cc(OC)c1OC [compound 9, 3,5,7,8,3′,4′,5′-Heptamethoxyflavone]")
34.3

Now for a further compound.
What value of IC50 has been reported for the following compound? COc1cc(-c2cc(=O)c3c(OC)c(OC)c(OC)c(OC)c3o2)cc(OC)c1OC [compound 4, 5,6,7,8,3′,4′,5′-heptamethoxyflavone]
24
